# Test system: Mus musculus
# Assay method text: In vivo activity against transplanted colon-38 tumors of mice
# Assay type: functional, organism-based
Measure: Log kill
Give a plain numeric answer without units written out.

Compound	Assayed target	Log kill
CC[C@]1(O)C[C@@H]2CN(CCc3c([nH]c4ccccc34)[C@@](C(=O)OC)(c3cc4c(cc3OC)N(C)[C@H]3[C@@](O)(C(=O)OC)[C@H](OC(C)=O)[C@]5(CC)C=CCN6CC[C@]43[C@@H]65)C2)C1	Mus musculus	2.8

IN: # input compound: COc1cc([C@@H]2c3cc4c(cc3[C@@H](O[C@@H]3O[C@@H]5CO[C@@H](C)O[C@H]5[C@H](O)[C@H]3O)[C@H]3COC(=O)[C@H]23)OCO4)cc(OC)c1O ; wanted: its Log kill
OUT: 1.9

IN: Requested field: Log kill. Item: O=P1(N(CCCl)CCCl)NCCCO1 (stereo not drawn)
OUT: 0.7

====

# Test system: Mus musculus
# Assay method text: In vivo activity against transplanted colon-38 tumors of mice
# Format: functional, organism-based
Log kill for assorted compounds
Answer with a number only.

Consider the following illustrative entries.
Nc1ccn([C@@H]2O[C@H](CO)[C@@H](O)C2(F)F)c(=O)n1 2.8
COc1cccc2c1C(=O)c1c(O)c3c(c(O)c1C2=O)C[C@@](O)(C(=O)CO)C[C@@H]3O[C@H]1C[C@H](N)[C@H](O)[C@H](C)O1 1.9

Consider the additional compound presented here.
IN: Reported Log kill, compound O=c1[nH]cc(F)c(=O)[nH]1 : ____
OUT: 2.8

====

# System: Mus musculus
# Assay method text: In vivo activity against transplanted Mam-17 tumors of mice
# Assay type: functional, organism-based
Measure: Log kill
Simply state the number, no unit and no words.

Please review the entries below; each comes with its answer.
Compound	Assayed target	Numeric result
O=c1[nH]cc(F)c(=O)[nH]1	Mus musculus	1.2
COc1cc([C@@H]2c3cc4c(cc3[C@@H](O[C@@H]3O[C@@H]5CO[C@@H](C)O[C@H]5[C@H](O)[C@H]3O)[C@H]3COC(=O)[C@H]23)OCO4)cc(OC)c1O	Mus musculus	1.9

IN: Param item = O=P1(N(CCCl)CCCl)NCCCO1 (stereo not drawn) ; retrieve measured Log kill.
OUT: 2.8

IN: Given the entry Nc1ccn([C@@H]2O[C@H](CO)[C@@H](O)[C@@H]2O)c(=O)n1 , report its measured Log kill.
OUT: 1.9

====

In this section, each of the molecules is paired with its reported Log kill.
# Test system: Mus musculus
# Assay method text: In vivo activity against transplanted Mam-17 tumors of mice
# Assay type: functional, organism-based

IN: Any idea what its Log kill is? The molecule is COc1cccc2c1C(=O)c1c(O)c3c(c(O)c1C2=O)C[C@@](O)(C(=O)CO)C[C@@H]3O[C@H]1C[C@H](N)[C@H](O)[C@H](C)O1
OUT: > 2.8

IN: Entry under review: CC[C@]1(O)C[C@@H]2CN(CCc3c([nH]c4ccccc34)[C@@](C(=O)OC)(c3cc4c(cc3OC)N(C)[C@H]3[C@@](O)(C(=O)OC)[C@H](OC(C)=O)[C@]5(CC)C=CCN6CC[C@]43[C@@H]65)C2)C1 . Reported Log kill?
OUT: < 0.7

IN: Please report the recorded Log kill for CC(=O)O[C@H]1C(=O)[C@@]2(C)[C@H]([C@H](OC(=O)c3ccccc3)[C@]3(O)C[C@H](OC(=O)[C@H](O)[C@@H](NC(=O)c4ccccc4)c4ccccc4)C(C)=C1C3(C)C)[C@]1(OC(C)=O)CO[C@@H]1C[C@@H]2O .
OUT: > 2.8

IN: Query: Log kill; subject: O=NN(CCCl)C(=O)NCCCl
OUT: < 0.7

Measured values drawn from ChEMBL document CHEMBL1134487 for this set.
